Hello, the source for this data is paper PMC5908839, in case you need it.

# target: AioX (Pseudorhizobium banfieldiae, UniProt L0NML6)
# Construct: 304 amino acid residues; His-tag removed; SeMet-labelled
# Sequence (L0NML6 27-304): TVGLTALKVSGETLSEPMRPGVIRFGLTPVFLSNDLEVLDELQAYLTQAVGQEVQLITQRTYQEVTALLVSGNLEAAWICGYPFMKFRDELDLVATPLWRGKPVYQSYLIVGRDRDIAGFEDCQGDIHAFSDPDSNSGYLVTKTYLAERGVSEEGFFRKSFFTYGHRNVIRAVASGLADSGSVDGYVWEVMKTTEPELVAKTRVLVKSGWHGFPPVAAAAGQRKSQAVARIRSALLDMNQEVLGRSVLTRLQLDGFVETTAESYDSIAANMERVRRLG
# experiment_summary: X-ray crystal structure ([…] Å; phosphate from the crystallisation conditions); no binding detected by ITC
pKd: −log10 of the molar value.
measured_parameter: pKd

[Q] Which value of pKd has been reported for O=P(O)(O)O [phosphate] in the records?
[A] < 2.70
